Please respond with reported IC50 for every item in the list.
- Test system: DU-145
- procedure-details: Cytotoxicity against human DU145 cells after 72 hrs by MTT assay
- Type: cell-based
- condition-notes: Homo sapiens, DU-145, 72 h; read-out: IC50
Answers are plain numbers, in µg/mL.

The cases that follow already have their IC50 on record.
COc1ccc(C2=C(c3cc(OC)c(OC)c(OC)c3)C(=O)CC2O)cc1 (centres undefined)
18.7
COc1ccc(C2=C(c3cc(OC)c(OC)c(OC)c3)/C(=N\O)C(O)C2)cc1F (centres undefined)
10
COc1ccc(OC)c(C2=C(c3cc(OC)c(OC)c(OC)c3)C(=O)CC2O[Si](C)(C)C(C)(C)C)c1 (centres undefined)
100
COc1ccc(C2=C(c3cc(OC)c(OC)c(OC)c3)C(=O)C(OC(C)=O)C2)cc1F (centres undefined)
16
COc1ccc(C2=C(c3cc(OC)c(OC)c(OC)c3)C(=O)C(O)C2)cc1Cl (centres undefined)
40

List reported IC50 for each of these compounds:
1. COc1ccc(C2=C(c3cc(OC)c(OC)c(OC)c3)/C(=N\O)CC2O[Si](C)(C)C(C)(C)C)cc1OC (centres undefined)
2. COc1ccc(C2=C(c3cc(OC)c(OC)c(OC)c3)/C(=N\O)C(O)C2)cc1OC(C)C (centres undefined)
3. COc1ccc(C2=C(c3cc(OC)c(OC)c(OC)c3)C(=O)CC2O)cc1O (centres undefined)

[60, 81, 8]
